Where do these numbers come from? They come from PubChem BioAssay (NCI).

For each entry below, report its growth value.
System: MOLT-4 leukemia
experiment description: NCI-60 one-dose screen, 48 h (100 = growth as untreated, 0 = no growth, -100 = all killed)
assay conditions: 10 µM unless noted
The panel holds about 83,000 compounds, 20% with a hit somewhere; the sample as a whole holds those more often.
API: value field is a number in %; no unit string.

Which growth is reported for this compound? CCCCCCCCCOc1c(OC)cc(C2CC(=O)Nc3c2c(C)nn3-c2nc3ccccc3[nH]2)cc1OC (stereo not given)
11.2

Which growth is reported for this compound? CC1CC(C(C)(C)C)C(=O)C(C(C)(C)C)C1 (stereo not given)
104

Which growth is reported for this compound? "Clc1cccc(Cl)c1C(Nc1nc2ccccc2s1)Nc1nc2ccccc2s1"
89.5

Which growth is reported for this compound? CC1=C([Se]CC(OC(=O)[C@@H](CO)NC(=O)OC(C)(C)C)C(=O)NC(C)(C)C)C(=O)c2ccccc2C1=O (stereo not given in full)
-31.6

Which growth is reported for this compound? "Cn1cc2c(c1)-c1nc(Nc3ccccc3)ncc1CC2"
44.6

* * *

For each entry below, report its growth value.
Test system: HCT-15 colon
experiment description: NCI-60 one-dose screen, 48 h (100 = growth as untreated, 0 = no growth, -100 = all killed)
assay conditions: 10 µM unless noted
About 83,000 compounds went through this panel and 20% of them were active in at least one assay; those are over-represented in the sample as a whole.
API: value field is a number in %; no unit string.

Which growth is reported for this compound? "Cc1cc(=O)oc2c1ccc1oc(C#N)c(C)c12"
98.9

Which growth is reported for this compound? "C[C@]12CC[C@@H]3c4cc(OC(F)F)c(O)cc4CC[C@H]3[C@@H]1CC[C@@H]2OS(N)(=O)=O"
26.6

Which growth is reported for this compound? "O=c1c2c3c(sc2nc(N/N=C/c2ccc(Br)cc2)n1Cc1ccccc1)CCCC3"
78.1

Which growth is reported for this compound? "COc1cccc(-c2nn(-c3ccccc3)cc2-c2ccnc(NCCCNC(=O)c3ccc(F)cc3)c2)c1"
24.9

Which growth is reported for this compound? "COC(=O)[C@]12CC[C@@H](C)[C@H](C)[C@@H]1C1=CC[C@@H]3[C@@]4(C)C(C=O)=C[C@@](C)(COC(=O)c5ccco5)C4=CC[C@@]3(C)[C@]1(C)CC2"
-31.9

Which growth is reported for this compound? "O=C(Nc1ccccc1)Nc1cccc(Oc2nnc(Cl)c3ccccc23)c1"
36.4

Which growth is reported for this compound? "COC(=O)c1c2c(c(C)[n+]([O-])c1C)C(=O)C(NCc1ccc(F)cc1)=CC2=O"
14

Which growth is reported for this compound? "O=C(NCCc1ccc(O)c(O)c1)C12CC3CC(CC(C3)C1)C2"
91.8

Which growth is reported for this compound? "COc1ccc2[nH]c(O)c(C(=Nc3ccc(N(C)C(=O)CN4CCN(C)CC4)cc3)c3ccccc3)c2c1"
24.7

* * *

Test system: SW-620 colon
experiment description: NCI-60 one-dose screen, 48 h (100 = growth as untreated, 0 = no growth, -100 = all killed)
assay conditions: 10 µM unless noted
About 83,000 compounds went through this panel and 20% of them were active in at least one assay; those are over-represented in the sample as a whole.
Threshold check on growth: at or above 80% gives yes, strictly below gives no.

Can "C[n+]1cc2cc(C(N)=O)[nH]c3c(=N)c(Cl)c(N)c1c23" be said to have growth at or above 80%?
no

Can "COc1cc(/C=N/n2c(CN3CCOCC3)nc3ccccc3c2=O)cc(OC)c1OC" be said to have growth at or above 80%?
yes

Can "NC(=O)c1ccc[n+](Cc2ccc(Cl)cc2Cl)c1" be said to have growth at or above 80%?
yes

Can "O=C1/C(=C2/C=Nc3ccccc32)N(O)c2ccccc21" be said to have growth at or above 80%?
no

Can "COc1cccc(/C=C/C(=O)c2c(C)nc3ccccc3c2/C=C/c2ccc(C)cc2)c1OC" be said to have growth at or above 80%?
no

Can CC(CN1CCCCC1)C(=O)c1ccccc1 (stereo unspecified) be said to have growth at or above 80%?
yes
